The following compounds are shown together with reported inhibition values.
- experimental-system: NAD-dependent protein deacetylase sirtuin-2 (Homo sapiens)
- test-details: Inhibition of recombinant human C-terminal His-tagged SIRT2 (50 to 389 end residues) expressed in Escherichia coli at 10 uM using p53 derived (379 to 382 residues) fluorogenic peptide substrate RHKK(Ac)-AMC preincubated for 10 mins followed by substrate addition in presence of NAD+ by fluorescence assay relative to control
State the answer as a number, implicitly in %.

- compound: "COc1ccc2ccccc2c1Cn1cnc2sc3c(c2c1=O)CCC(NCc1ccco1)C3 (configuration not stated)"
  inhibition [%]: 78
- compound: "O=c1c2c3c(sc2ncn1Cc1cccc(-c2ccccc2)c1)CC(Nc1ccc(F)cc1)CC3 (configuration not stated)"
  inhibition [%]: 52
- compound: "COc1ccc2ccccc2c1Cn1cnc2sc(CCN(C)C)c(C)c2c1=O"
  inhibition [%]: 30
- compound: "COc1ccccc1CCNC1CCc2c(sc3ncn(Cc4cccc5ccccc45)c(=O)c23)C1 (configuration not stated)"
  inhibition [%]: 60

INPUT: Kindly state the measured inhibition obtained for CC(=O)NCCNC1CCc2c(sc3ncn(Cc4ccc5ccccc5c4)c(=O)c23)C1 (configuration not stated) with NAD-dependent protein deacetylase sirtuin-2 (Homo sapiens).
OUTPUT: 47

INPUT: Kindly state the measured inhibition obtained for O=c1c2c3c(sc2ncn1Cc1cccc2ccccc12)CC(NC1CCCc2ccccc21)CC3 (configuration not stated) with NAD-dependent protein deacetylase sirtuin-2 (Homo sapiens).
OUTPUT: 51

INPUT: Kindly state the measured inhibition obtained for COc1ccc2ccccc2c1Cn1cnc2sc3c(c2c1=O)CCC(NCc1ccccn1)C3 (configuration not stated) with NAD-dependent protein deacetylase sirtuin-2 (Homo sapiens).
OUTPUT: 83

INPUT: Kindly state the measured inhibition obtained for O=c1c2c3c(sc2ncn1Cc1cccc2cccnc12)CC(NCCN1CCCC1)CC3 (configuration not stated) with NAD-dependent protein deacetylase sirtuin-2 (Homo sapiens).
OUTPUT: 29

INPUT: Kindly state the measured inhibition obtained for O=c1c2c3c(sc2ncn1Cc1ccccc1)CC(NCc1cccnc1)CC3 (configuration not stated) with NAD-dependent protein deacetylase sirtuin-2 (Homo sapiens).
OUTPUT: 42

INPUT: Kindly state the measured inhibition obtained for COc1ccc2ccccc2c1Cn1cnc2sc3c(c2c1=O)CCC(NCCc1ccncc1)C3 (configuration not stated) with NAD-dependent protein deacetylase sirtuin-2 (Homo sapiens).
OUTPUT: 95

INPUT: Kindly state the measured inhibition obtained for O=c1c2c3c(sc2ncn1Cc1ccc2ccccc2c1)CC(NCc1ccccc1)CC3 (configuration not stated) with NAD-dependent protein deacetylase sirtuin-2 (Homo sapiens).
OUTPUT: 71

INPUT: Kindly state the measured inhibition obtained for COc1cccc(NC2CCc3c(sc4ncn(Cc5cccc(-c6ccccc6)c5)c(=O)c34)C2)c1 (configuration not stated) with NAD-dependent protein deacetylase sirtuin-2 (Homo sapiens).
OUTPUT: 30

Attribution: ChEMBL document CHEMBL4004822
